- Test system: PBMC (polyclonal gluten-specific T cells) of paediatric and adult CD patients
- ASSAY NOTES: IFN-γ ELISpot of PBMC after 3 day oral wheat challenge (SFU, % of maximal peptide response, dominance scores, EC50; Examples 5-6)
- Assay type: cell-based, human
- EXPERIMENTAL CONDITIONS: patient K; max peptide 53 SFU
OUTCOME MEASURE: Significant response as percentage of maximal peptide SFU

SEQUENCE INPUT	ASSAY SYSTEM	ENDPOINT VALUE
PFPEQPEQPFPQP	PBMC (polyclonal gluten-specific T cells) of paediatric and adult CD patients	′′ (21-40% = ′′)
LQPFPQPQLPYPQP	PBMC (polyclonal gluten-specific T cells) of paediatric and adult CD patients	′ (11-20% = ′)
GIIQPQQPAQL	PBMC (polyclonal gluten-specific T cells) of paediatric and adult CD patients	′′ (21-40% = ′′)
QPFPQPEQPFPWQP	PBMC (polyclonal gluten-specific T cells) of paediatric and adult CD patients	′′ (21-40% = ′′)
LQPFPQPELPFPQP [Peptide W06]	PBMC (polyclonal gluten-specific T cells) of paediatric and adult CD patients	′′ (21-40% = ′′)
PEQPFPEQPEQPF	PBMC (polyclonal gluten-specific T cells) of paediatric and adult CD patients	′′ (21-40% = ′′)
QPFPQPEQPIPVQ	PBMC (polyclonal gluten-specific T cells) of paediatric and adult CD patients	′ (11-20% = ′)
QFIQPEQPFPQQ	PBMC (polyclonal gluten-specific T cells) of paediatric and adult CD patients	′′ (21-40% = ′′)
FLQPEQPFPEQPEQPYPEQPEQPFPQ	PBMC (polyclonal gluten-specific T cells) of paediatric and adult CD patients	′′ (21-40% = ′′)
PFPLQPEQPFPQP	PBMC (polyclonal gluten-specific T cells) of paediatric and adult CD patients	′′′ (41-70% = ′′′)
LQPFPQPELPYPQPQ	PBMC (polyclonal gluten-specific T cells) of paediatric and adult CD patients	′′ (21-40% = ′′)
QPFPQPQQPFSQQ	PBMC (polyclonal gluten-specific T cells) of paediatric and adult CD patients	′′ (21-40% = ′′)
QPFPQPEQPFPWQ [Peptide W03, contains DQ2.5-glia-w1 and w2]	PBMC (polyclonal gluten-specific T cells) of paediatric and adult CD patients	′′ (21-40% = ′′)
QPFPQPQQPIPVQ [Peptide W04]	PBMC (polyclonal gluten-specific T cells) of paediatric and adult CD patients	′′ (21-40% = ′′)
PQQPQQSFPQQQQPA	PBMC (polyclonal gluten-specific T cells) of paediatric and adult CD patients	′′ (21-40% = ′′)
LQPRPQPELPYPQP	PBMC (polyclonal gluten-specific T cells) of paediatric and adult CD patients	′′′ (41-70% = ′′′)
FPQPEQEFPQPQQ	PBMC (polyclonal gluten-specific T cells) of paediatric and adult CD patients	′′′ (41-70% = ′′′)

Each recorded value in this set is attributed to patent US20170232083A1.
